Source of measurements: PubChem BioAssay AID588342

Target desc: Luciferin 4-monooxygenase (Photinus pyralis)
Assay text: qHTS profiling assay for firefly luciferase inhibitor/activator using purifed enzyme and Km concentrations of substrates (counterscreen for miR-21 project); further: nearly all actives have a fitted effect of over 55% in size
Settings: purified FLuc, luminescence inhibition; series mostly up to 57.5 µM
In all, about 360,000 compounds went through this assay and about 25,000 (6.9%) were called active. Inconclusive results (about 9%) are left out. The call rests on the fitted dose curve; in most records, active means well fitted inhibition curve with a large enough effect; inconclusive means small, poorly fitted or top-dose-only effect; inactive means flat fitted curve, though single readings scatter. What follows is part of a selection rich in actives, with near analogues and random picks from the rest.
Classes used: active, inactive

>  <Molecule>
c1ccc(Nc2nc(-c3ccncc3)cs2)nc1

>  <Target desc>
Luciferin 4-monooxygenase (Photinus pyralis)

>  <Assigned class>
active

$$$$
>  <Molecule>
COc1cccc(NC(=O)c2nn(-c3ccc(OC)cc3OC)c(=O)c3ccccc23)c1

>  <Target desc>
Luciferin 4-monooxygenase (Photinus pyralis)

>  <Assigned class>
inactive

$$$$
>  <Molecule>
Cc1ccc(C2CCN(C(=O)c3cnn(-c4ccccc4Cl)c3C3CCN(C(=O)OC(C)(C)C)CC3)C2)cc1 (stereo not given)

>  <Target desc>
Luciferin 4-monooxygenase (Photinus pyralis)

>  <Assigned class>
inactive

$$$$
>  <Molecule>
COc1ccc(-n2nc(C(=O)NCC(=O)N3CCCCCC3)c3ccccc3c2=O)cc1Cl

>  <Target desc>
Luciferin 4-monooxygenase (Photinus pyralis)

>  <Assigned class>
active

$$$$
>  <Molecule>
O=C(CCCCn1c(=O)c2ccccc2n(CC(=O)Nc2cccc(C(F)(F)F)c2)c1=O)NCc1ccc2c(c1)OCO2

>  <Target desc>
Luciferin 4-monooxygenase (Photinus pyralis)

>  <Assigned class>
inactive

$$$$
>  <Molecule>
O=C(CN1C(=O)C2C3C=CC(C3)C2C1=O)Nc1nc(-c2ccccn2)cs1 (stereo not given)

>  <Target desc>
Luciferin 4-monooxygenase (Photinus pyralis)

>  <Assigned class>
inactive

$$$$
>  <Molecule>
CSc1nc(Nc2ccc(F)cc2)cc(-c2ccccc2)n1

>  <Target desc>
Luciferin 4-monooxygenase (Photinus pyralis)

>  <Assigned class>
inactive

$$$$
>  <Molecule>
COCCCNC(=O)CNC(=O)c1nn(-c2ccc(OC)cc2)c(=O)c2ccccc12

>  <Target desc>
Luciferin 4-monooxygenase (Photinus pyralis)

>  <Assigned class>
inactive

$$$$
>  <Molecule>
O=C(CSc1nccn1Cc1ccc(Cl)cc1)NCc1ccccc1

>  <Target desc>
Luciferin 4-monooxygenase (Photinus pyralis)

>  <Assigned class>
inactive

$$$$
>  <Molecule>
COc1ccc(-n2nc(C(=O)Nc3cc(OC)c(OC)c(OC)c3)c3ccccc3c2=O)c(OC)c1

>  <Target desc>
Luciferin 4-monooxygenase (Photinus pyralis)

>  <Assigned class>
inactive

$$$$
